Reference for the values: ChEMBL document CHEMBL3991601

- target_entity: Serine/threonine-protein kinase TAO3 (Homo sapiens); note: in the data inactive means no Kd found up to 30 µM
- Sequence (Q9H2K8 whole entry): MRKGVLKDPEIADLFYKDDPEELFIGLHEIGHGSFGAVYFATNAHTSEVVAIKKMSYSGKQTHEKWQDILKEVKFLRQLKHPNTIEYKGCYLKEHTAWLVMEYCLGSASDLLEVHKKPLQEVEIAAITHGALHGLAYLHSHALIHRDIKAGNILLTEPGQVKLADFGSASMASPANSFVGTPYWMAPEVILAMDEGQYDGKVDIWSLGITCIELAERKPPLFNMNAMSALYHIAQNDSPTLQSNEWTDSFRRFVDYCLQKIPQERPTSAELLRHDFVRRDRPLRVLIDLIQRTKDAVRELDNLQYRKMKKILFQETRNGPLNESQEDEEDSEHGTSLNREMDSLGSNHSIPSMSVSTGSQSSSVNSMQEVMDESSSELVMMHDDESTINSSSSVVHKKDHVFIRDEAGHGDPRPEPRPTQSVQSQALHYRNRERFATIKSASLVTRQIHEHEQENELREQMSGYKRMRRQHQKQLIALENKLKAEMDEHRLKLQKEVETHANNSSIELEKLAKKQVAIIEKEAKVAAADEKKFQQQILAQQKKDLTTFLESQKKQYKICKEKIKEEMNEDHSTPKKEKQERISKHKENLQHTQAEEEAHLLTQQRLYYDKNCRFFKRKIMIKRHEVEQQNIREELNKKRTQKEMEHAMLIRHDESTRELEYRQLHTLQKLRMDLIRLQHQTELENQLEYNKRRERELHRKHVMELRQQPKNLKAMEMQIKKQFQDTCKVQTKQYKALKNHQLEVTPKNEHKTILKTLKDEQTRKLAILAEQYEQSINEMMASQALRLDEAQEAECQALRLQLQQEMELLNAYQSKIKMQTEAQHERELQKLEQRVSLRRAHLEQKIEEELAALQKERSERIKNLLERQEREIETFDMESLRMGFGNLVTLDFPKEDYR
Active and inactive are the calls of the source.
The reply should name one outcome from active, inactive

Worked examples follow.
[[record]]
molecule = "CCc1nc(C(N)=O)c(Nc2ccc(N3CCC(N4CCN(C)CC4)CC3)c(OC)c2)nc1NC1CCOCC1 [GILTERITINIB]"
assigned_label = "inactive"

[[record]]
molecule = "S=C(NCc1ccc2c(c1)OCO2)N1CCN(c2ncnc3c2oc2ccccc23)CC1 [AMUVATINIB]"
assigned_label = "inactive"


[in] Tell me the assay call for CNC(=O)c1cc(COc2nnc(Nc3ccc(Cl)cc3)c3ccoc23)ccn1 [TELATINIB] please.
[out] inactive

[in] Tell me the assay call for CN(c1ncccc1CNc1nc(Nc2ccc3c(c2)CC(=O)N3)ncc1C(F)(F)F)S(C)(=O)=O [PF-00562271] please.
[out] active

[in] Tell me the assay call for NC(=O)c1ccc(N(C(N)=O)c2c(F)cccc2F)nc1-c1ccc(F)cc1F [VX-702] please.
[out] inactive

[in] Tell me the assay call for COc1cccc(Nc2ncnn3ccc(CN4CC[C@@H](N)[C@H](O)C4)c23)c1 [BMS-690514] please.
[out] inactive

----------
- target_entity: Serine/threonine-protein kinase Nek9 (Homo sapiens); note: in the data inactive means no Kd found up to 30 µM
- Sequence (Q8TD19 whole entry): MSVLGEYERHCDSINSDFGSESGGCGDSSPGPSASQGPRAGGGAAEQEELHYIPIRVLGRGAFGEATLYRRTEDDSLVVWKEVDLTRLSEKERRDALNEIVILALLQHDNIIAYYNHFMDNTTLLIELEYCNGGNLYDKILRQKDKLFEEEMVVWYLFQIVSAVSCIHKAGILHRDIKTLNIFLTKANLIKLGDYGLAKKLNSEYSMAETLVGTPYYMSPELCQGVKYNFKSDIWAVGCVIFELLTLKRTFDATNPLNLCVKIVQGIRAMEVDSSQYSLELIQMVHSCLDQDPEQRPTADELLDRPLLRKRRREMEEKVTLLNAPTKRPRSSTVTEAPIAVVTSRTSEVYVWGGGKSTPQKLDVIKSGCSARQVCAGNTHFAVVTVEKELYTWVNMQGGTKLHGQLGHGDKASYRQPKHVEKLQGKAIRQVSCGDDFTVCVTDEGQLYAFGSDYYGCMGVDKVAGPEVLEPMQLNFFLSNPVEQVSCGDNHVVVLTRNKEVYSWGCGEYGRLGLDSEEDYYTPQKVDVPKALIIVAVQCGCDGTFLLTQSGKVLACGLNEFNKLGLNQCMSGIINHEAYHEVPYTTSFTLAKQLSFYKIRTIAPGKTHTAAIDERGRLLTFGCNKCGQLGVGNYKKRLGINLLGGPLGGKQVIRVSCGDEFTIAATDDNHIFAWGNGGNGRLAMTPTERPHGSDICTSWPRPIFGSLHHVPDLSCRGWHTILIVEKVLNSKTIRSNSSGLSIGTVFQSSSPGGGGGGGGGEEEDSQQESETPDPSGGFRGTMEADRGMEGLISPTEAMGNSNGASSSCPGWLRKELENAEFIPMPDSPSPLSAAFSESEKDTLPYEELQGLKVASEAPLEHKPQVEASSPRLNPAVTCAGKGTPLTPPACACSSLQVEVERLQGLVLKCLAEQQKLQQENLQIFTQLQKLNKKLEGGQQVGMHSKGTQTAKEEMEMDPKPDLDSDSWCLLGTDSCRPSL
The source made the active and inactive calls.
The reply should name one outcome from active, inactive

Worked examples follow.
[[record]]
molecule = "FC(F)(F)c1ccc(CNc2ccc(Cc3c[nH]c4ncc(Cl)cc34)cn2)cn1 [PEXIDARTINIB]"
assigned_label = "inactive"

[[record]]
molecule = "Cc1cc(-c2cc(OC(=O)c3ccccc3)ccc2Cl)cc2nnc(Nc3ccc(OCCN4CCCC4)cc3)nc12 [TG100-801]"
assigned_label = "inactive"

[[record]]
molecule = "CNC(=O)c1ccc(Nc2ncc(C(F)(F)F)c(NCc3nccnc3N(C)S(C)(=O)=O)n2)cc1 [DEFACTINIB]"
assigned_label = "inactive"

[[record]]
molecule = "Cc1cc(Nc2nc(N[C@@H](C)c3ncc(F)cn3)ncc2Cl)n[nH]1 [AZD-1480]"
assigned_label = "inactive"

[[record]]
molecule = "C=CCN(/C=C1/C(=O)O[C@H](COC)[C@@]2(C)C1=C(O)C(=O)C1=C2[C@H](OC(C)=O)C[C@]2(C)C(=O)CC[C@@H]12)CC=C [SONOLISIB]"
assigned_label = "inactive"

[[record]]
molecule = "Cc1c(NC(=O)OC[C@@H]2COCCN2)cn2ncnc(Nc3ccc4c(cnn4Cc4cccc(F)c4)c3)c12 [AC-480]"
assigned_label = "inactive"

[[record]]
molecule = "N#CCNC(=O)c1ccc(-c2ccnc(Nc3ccc(N4CCOCC4)cc3)n2)cc1 [MOMELOTINIB]"
assigned_label = "active"

[[record]]
molecule = "Cn1cc(-c2[nH]c3cc(NC(=O)[C@H](N)C4CCCCC4)cc4c3c2C=NNC4=O)cn1"
assigned_label = "inactive"


Please find the next molecule below.
[in] Tell me the assay call for C=CC(=O)Nc1cccc(Nc2nc(Nc3ccc(N4CCN(C(C)=O)CC4)cc3OC)ncc2C(F)(F)F)c1 [ROCILETINIB] please.
[out] inactive
